Listed here: items and their measured log10 of Ki.
Biological target: T1, human Nectin-4 (human, UniProt Q96NY8 32-349)
T1 construct: a Gly32-Ser349 FLAG construct is described only under the SPR assay; also called PVRL4
T1 sequence (looked up): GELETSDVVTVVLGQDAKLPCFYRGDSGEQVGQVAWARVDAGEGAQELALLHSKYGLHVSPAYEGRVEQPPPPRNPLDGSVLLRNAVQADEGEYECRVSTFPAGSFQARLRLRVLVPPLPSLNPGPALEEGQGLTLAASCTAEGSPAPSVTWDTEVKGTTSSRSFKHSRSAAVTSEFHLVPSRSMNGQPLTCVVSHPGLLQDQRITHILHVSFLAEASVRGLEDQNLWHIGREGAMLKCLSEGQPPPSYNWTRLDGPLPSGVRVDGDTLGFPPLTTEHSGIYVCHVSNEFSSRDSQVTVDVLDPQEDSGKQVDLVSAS
Assay: FP competition, tracer SEQ ID NO 217
*1 amine or outer side, *2 acyl side, *3 side chain or, on linkers, in order; H or OH if unused. Bridges are numbered along the chain shown (N, C = ends). Where no end group is shown, it is not given here. [ ]: non-standard residue; d: D form. TATA = O=C(CC[*:1])N1CN(C(=O)CC[*:2])CN(C(=O)CC[*:3])C1; 1Nal = N[C@@H](Cc1cccc2ccccc12)C(=O)O; 2Nal = N[C@@H](Cc1ccc2ccccc2c1)C(=O)O; Hyp = O=C(O)[C@@H]1C[C@@H](O)CN1; hArg = N=C(N)NCCCC[C@H](N)C(=O)O; Pip = O=C(O)[C@@H]1CCCCN1; Aze = O=C(O)[C@@H]1CCN1; βAla = NCCC(=O)O; Sar = CNCC(=O)O
MEASURE_NAME: log10 of Ki (log10 of the value in nM)

{"BINDER": "ACAPLDDYWCGRICA (linker 2-10-14 via TATA) [BCY432]", "MEASURE_NAME": "log10 of Ki", "EXPERIMENTAL_RESULT": 3.04}
{"BINDER": "ACPFACMKNWSWPIWCTNK (linker 2-6-16 via TATA, also called 80-09-02-T01-N020) [BCY7354]", "MEASURE_NAME": "log10 of Ki", "EXPERIMENTAL_RESULT": 2.95}
{"BINDER": "ACPFGCM[dA]NWSWPIWCTNK (linker 2-6-16 via TATA) [BCY7359]", "MEASURE_NAME": "log10 of Ki", "EXPERIMENTAL_RESULT": 2.20}
{"BINDER": "Ac-CVTTSYDCWVTLGHCSRF (linker 1-8-15 via TATA) [BCY7393]", "MEASURE_NAME": "log10 of Ki", "EXPERIMENTAL_RESULT": 2.37}
{"BINDER": "Ac-QK[1Nal]CAPLSDYWCNRIC (linker 4-12-16 via TATA) [BCY7996]", "MEASURE_NAME": "log10 of Ki", "EXPERIMENTAL_RESULT": 1.32}
{"BINDER": "DPGCPFGCMPGWSWPIWCA (linker 4-8-18 via TATA) [BCY3392]", "MEASURE_NAME": "log10 of Ki", "EXPERIMENTAL_RESULT": 1.56}
{"BINDER": "Ac-CPFGCMKNWSWPIWCTNK (linker 1-5-15 via TATA, also called 80-09-02-T01-N011) [BCY7391]", "MEASURE_NAME": "log10 of Ki", "EXPERIMENTAL_RESULT": 1.12}
{"BINDER": "Ac-CPFGCMKNWS[1Nal]PIWC (linker 1-5-15 via TATA) [BCY7591]", "MEASURE_NAME": "log10 of Ki", "EXPERIMENTAL_RESULT": 2.26}
{"BINDER": "Ac-CPF[dS]CM[hArg]NWSTPIWC (linker 1-5-15 via TATA) [BCY7907]", "MEASURE_NAME": "log10 of Ki", "EXPERIMENTAL_RESULT": 1.00}
{"BINDER": "{Ac-βAla}-[Sar][Sar][Sar][Sar][Sar]CP[1Nal][dD]CM[hArg]HWSTP[Hyp]WC (linker 6-10-20 via TATA) [BCY8121]", "MEASURE_NAME": "log10 of Ki", "EXPERIMENTAL_RESULT": 0.60}
{"BINDER": "Ac-QK[2Nal]CAPLSDYWCNRIC (linker 4-12-16 via TATA) [BCY7997]", "MEASURE_NAME": "log10 of Ki", "EXPERIMENTAL_RESULT": 1.34}
{"BINDER": "Ac-Q[dD]WCAPLSDYWCNRIC (linker 4-12-16 via TATA) [BCY7993]", "MEASURE_NAME": "log10 of Ki", "EXPERIMENTAL_RESULT": 1.58}
{"BINDER": "Ac-CPFGCMKNWSW[Aze]IWC (linker 1-5-15 via TATA) [BCY7594]", "MEASURE_NAME": "log10 of Ki", "EXPERIMENTAL_RESULT": 1.86}
{"BINDER": "Ac-CAPLSDYWCNRIC (linker 1-9-13 via TATA) [BCY8044]", "MEASURE_NAME": "log10 of Ki", "EXPERIMENTAL_RESULT": 2.23}
{"BINDER": "Q[dK]WCAPLSDYWCNRICA (linker 4-12-16 via TATA) [BCY7426]", "MEASURE_NAME": "log10 of Ki", "EXPERIMENTAL_RESULT": 1.84}
{"BINDER": "Ac-CP[1Nal][dD]CM[hArg]HWSTP[Hyp]WC (linker 1-5-15 via TATA) [BCY8125]", "MEASURE_NAME": "log10 of Ki", "EXPERIMENTAL_RESULT": 0.49}
{"BINDER": "ACAFGCMKNWSWPIWCTNK (linker 2-6-16 via TATA, also called 80-09-02-T01-N022) [BCY7352]", "MEASURE_NAME": "log10 of Ki", "EXPERIMENTAL_RESULT": 2.12}
{"BINDER": "Ac-AKWCAPLSDYWCNRIC (linker 4-12-16 via TATA) [BCY7622]", "MEASURE_NAME": "log10 of Ki", "EXPERIMENTAL_RESULT": 1.49}
{"BINDER": "Ac-CPF[dQ]CM[hArg]NWSTPIWC (linker 1-5-15 via TATA) [BCY7904]", "MEASURE_NAME": "log10 of Ki", "EXPERIMENTAL_RESULT": 0.90}
{"BINDER": "Ac-CPFGCMKNWSW[Pip]IWC (linker 1-5-15 via TATA) [BCY7595]", "MEASURE_NAME": "log10 of Ki", "EXPERIMENTAL_RESULT": 2.34}
{"BINDER": "Ac-QKWCAPLADYWCNRIC (linker 4-12-16 via TATA) [BCY7627]", "MEASURE_NAME": "log10 of Ki", "EXPERIMENTAL_RESULT": 2.00}
{"BINDER": "Ac-CPFGCMSNWSWPIWC (linker 1-5-15 via TATA, also called 80-09-02-N047) [BCY7658]", "MEASURE_NAME": "log10 of Ki", "EXPERIMENTAL_RESULT": 1.53}
{"BINDER": "Ac-CPY[dD]CM[hArg]NWSTPIWC (linker 1-5-15 via TATA) [BCY8040]", "MEASURE_NAME": "log10 of Ki", "EXPERIMENTAL_RESULT": 1.03}
{"BINDER": "Ac-QKACAPLSDYWCNRIC (linker 4-12-16 via TATA) [BCY7624]", "MEASURE_NAME": "log10 of Ki", "EXPERIMENTAL_RESULT": 2.76}
